Target: human GITR on 293F‐hGITR cells (Homo sapiens (Human)., UniProt Q9Y5U5-1)
Sequence (Q9Y5U5 26-241): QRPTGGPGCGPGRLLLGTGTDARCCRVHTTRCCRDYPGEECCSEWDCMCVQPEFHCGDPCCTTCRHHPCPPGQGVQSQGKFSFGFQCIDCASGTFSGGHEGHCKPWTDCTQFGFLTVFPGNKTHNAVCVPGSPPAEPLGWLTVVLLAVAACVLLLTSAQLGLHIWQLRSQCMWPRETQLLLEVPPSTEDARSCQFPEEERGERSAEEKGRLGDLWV
Assay: cell-based or functional assay
ASSAY_METRIC: NF‐ĸB luciferase reporter assay, No crosslinking, EC50 (nM)
Numbers only; they are read as nM.

Here is how some binders turned out for NF‐ĸB luciferase reporter assay, No crosslinking, EC50.
>  <BINDER>
mAb070 (antibody, V domains shown, as the VH of m14; as the VL of m14; Human-murine chimeric antibody from H2L2 mice: human variable regions, rat constant regions; source: hybridoma cell culture supernatant, purified (Protein A)) VH: QVQLVESGGGVVQPGRSLRLSCAASGFTFSSYGMHWVRQAPGKGLEWVAVIWYETSNKFYVDSVKGRFTISRDNSKNTLYLQMNSLRAEDTAVYYCARYGASSGWYWYFDLWGRGTLVTVSS VL: DIQLTQSPSFLSASVGDRVTITCRASQGISSFLAWYQQKPGKAPKLLIYAASTLQSGVPSRFSGSGSGTEFTLTISSLQPEDFATYCCQQLNSYPFTFGQGTKLEIK

>  <REPORTED_MEASUREMENT>
0.062

$$$$
>  <BINDER>
hab070e1 (antibody, V domains shown, as the VH of m14 (3503‐hab070‐VH); 3503‐hab070‐Vk(C2Y); the substitution is against the VL of m14 (Cys in FR3 of VL); position not given; Whole antibody, human IgG1 heavy chain constant region, human kappa light chain constant region; also called hab70e1; source: FreeStyle 293F, transiently co-transfected, purified from culture supernatant) VH: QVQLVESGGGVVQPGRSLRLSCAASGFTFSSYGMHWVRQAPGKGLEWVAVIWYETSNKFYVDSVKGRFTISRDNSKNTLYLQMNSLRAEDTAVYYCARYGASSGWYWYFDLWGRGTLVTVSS VL: DIQLTQSPSFLSASVGDRVTITCRASQGISSFLAWYQQKPGKAPKLLIYAASTLQSGVPSRFSGSGSGTEFTLTISSLQPEDFATYYCQQLNSYPFTFGQGTKLEIK

>  <REPORTED_MEASUREMENT>
0.262

$$$$
>  <BINDER>
hab076 (antibody, V domains shown, 3503‐hab076‐VH; 3503‐hab076‐Vk; Whole antibody, human IgG1 heavy chain constant region, human kappa light chain constant region; source: FreeStyle 293F, transiently co-transfected, purified from culture supernatant) VH: QVQLVESGGGVVQPGRSLRLSCAASGFTFSSYGMHWVRQAPGKGLEWVAVIWYETSNKYYADSVKGRFTISRDNSKNTLYLQMNSLRAEDTAVYYCARYGASSGWYWYFDLWGRGTLVTVSS VL: DIQLTQSPSFLSASVGDRVTITCRASQGISSYLAWYQQKPGKAPKLLIYAASTLQSGVPSRFSGSGSGTEFTLTISSLQPEDFATYCCQQLNSYPFTFGQGTKLEIK

>  <REPORTED_MEASUREMENT>
0.157

$$$$
>  <BINDER>
hab064e1 (antibody, V domains shown, 3503‐hab064‐VH(N2S); the substitution is against the VH of m13; position not given; 3503‐hab064‐Vk(T2K/C2Y); the substitutions are against the VL of m13; positions not given; Whole antibody, human IgG1 heavy chain constant region, human kappa light chain constant region; source: FreeStyle 293F, transiently co-transfected, purified from culture supernatant) VH: QVQLVESGGGVVQPGRSLRLSCAASGFTFSSYGMHWVRQAPGKGLEWVAVIWYETSNKYYADSVKGRFTISRDNSKNTLYLQMNSLRAEDTAVYYCARYGGNSGWYWYFDLWGRGTLVTVSS VL: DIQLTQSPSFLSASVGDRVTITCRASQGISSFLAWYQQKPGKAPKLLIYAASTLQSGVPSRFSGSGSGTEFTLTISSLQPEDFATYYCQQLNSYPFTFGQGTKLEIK

>  <REPORTED_MEASUREMENT>
0.264

$$$$

The record that follows has no NF‐ĸB luciferase reporter assay, No crosslinking, EC50 shown yet.
Summary for this binder, Tab9H6v3 (antibody, V domains shown, heavy chain variable region of clone 9H6v3 (AMGEN INC.); light chain variable region of clone 9H6v3 (AMGEN INC.)) VH: QVQLVESGGGVVQPGRSLRLSCVASGFTFSSYGMHWIRQAPGKGLEWVAVIWYEGSNKYYAESVKGRFTISRDNSKNTLYLQMNSLRAEDTAVYYCARGGRLGKDYYSGMDVWGQGTTVTVSS VL: DIQMTQSPSSLSASVGDRVTITCRASQGIRNDLGWYQQKPGKAPKRLIYATSSLQSGVPSRFSGSGSGTEFTLTISSLQPEDFATYYCLQHNTYPWTFGQGTKVEIK : NF‐ĸB luciferase reporter assay, No crosslinking, EC50 is 0.787

These data points were gathered from paper PMC9340783.
